- Tested on: leukemia HL-60 cells
- experiment notes: In vitro cell inhibition assay, CCK-8 method, HL-60
- Assay type: cell-based, human
- assay setup: HL-60 cells, CCK-8 method, concentration 0.01 μM
// values below are reported Proliferation inhibitory effect of the compounds on HL-60 cells (% of Control)

Solved cases below.
{"columns": ["line notation", "data value"],
 "data": [
  ["COC(=O)c1ccc(Nc2c(Cl)c(Cl)c(C#N)c(Cl)c2C#N)cc1", "11.52 % of Control"],
  ["N#Cc1c(Cl)c(Cl)c(Nc2ccc(C(F)(F)F)cc2)c(C#N)c1Cl", "0.00 % of Control"],
  ["N#Cc1c(Cl)c(Cl)c(Nc2c(Br)cc(OC(F)(F)F)cc2Br)c(C#N)c1Cl", "13.70 % of Control"]
]}

Task: Request the reported Proliferation inhibitory effect of the compounds on HL-60 cells (% of Control) associated with N#Cc1c(Cl)c(Cl)c(Nc2ccc(Br)cc2Cl)c(C#N)c1Cl
Output: 0.00 % of Control

Task: Another compound to check: N#Cc1c(Cl)c(Cl)c(Nc2c(Cl)cc(C(F)(F)F)cc2Cl)c(C#N)c1Cl
Output: 0.00 % of Control

Task: Another compound to check: N#Cc1c(Cl)c(Cl)c(Nc2c(Cl)cc(Cl)cc2Cl)c(C#N)c1Cl
Output: 30.19 % of Control

Task: Another compound to check: N#Cc1c(Cl)c(Cl)c(Nc2ccc(C(F)(F)F)cc2Cl)c(C#N)c1Cl
Output: 7.02 % of Control

Task: Another compound to check: COC(=O)c1cc(Cl)c(Nc2c(Cl)c(Cl)c(C#N)c(Cl)c2C#N)c(Cl)c1
Output: 14.24 % of Control

Task: Another compound to check: N#Cc1c(Cl)c(Cl)c(Nc2ccc(Cl)c(Cl)c2)c(C#N)c1Cl
Output: 23.65 % of Control

Task: Another compound to check: N#Cc1c(Cl)c(Cl)c(Nc2c(Cl)cc(Br)cc2Cl)c(C#N)c1Cl
Output: 40.59 % of Control

---

// values below are reported Proliferation inhibitory effect of the compounds on A549 cell (% of Control)
- Tested on: lung cancer A549 cell
- experiment notes: In vitro cell inhibition assay (MTT method), A549
- Format: cell-based, human
- assay setup: 0.01 μM, 48 h incubation

Solved cases below.
{"columns": ["molecule", "target", "data value"],
 "data": [
  ["N#Cc1c(Cl)c(Cl)c(Nc2ccccc2)c(C#N)c1Cl [Compound 6-1]", "lung cancer A549 cell", "13.1 % of Control"],
  ["N#Cc1c(Cl)c(Cl)c(Nc2c(Cl)cc(Cl)cc2Cl)c(C#N)c1Cl [Compound 6-93]", "lung cancer A549 cell", "12.1 % of Control"]
]}

Task: Request the reported Proliferation inhibitory effect of the compounds on A549 cell (% of Control) associated with Cc1c(Cl)c([N+](=O)[O-])cc([N+](=O)[O-])c1Nc1c(F)cccc1F [Compound 22-33]
Output: −1.6 % of Control

Task: Another molecule to check: N#Cc1c(Cl)c(Cl)c(Nc2c(Br)cc([N+](=O)[O-])cc2Br)c(C#N)c1Cl [Compound 6-114]
Output: 10.1 % of Control

Task: Another molecule to check: N#Cc1c(Cl)c(Cl)c(Nc2c(Cl)cccc2Cl)c(C#N)c1Cl [Compound 6-41]
Output: 3.8 % of Control

---

- System: nasopharyngeal carcinoma CNE
- experiment notes: In vitro cell inhibition assay, CCK-8 method, CNE
- Format: cell-based, human
- assay setup: read-out: The half maximal inhibitory concentration (IC50)
experimental readout: pIC50
Conceptually, pIC50 converts a concentration in mol/L into minus its log10.

Task: Request the reported pIC50 associated with N#Cc1c(Cl)c(Cl)c(Nc2c(Cl)cc(Cl)cc2Cl)c(C#N)c1Cl [Compound 6-93]
Output: 5.22

---

- System: leukemia MOLT-4
- experiment notes: In vitro cell inhibition assay, CCK-8 method, MOLT-4
- Type: cell-based, human
- assay setup: leukemia MOLT-4, CCK-8 method; read-out: The half maximal inhibitory concentration (IC50)
experimental readout: IC50 (nM)
I only need the number, in nM, no unit after it.

Task: Request the reported IC50 associated with N#Cc1c(Cl)c(Cl)c(Nc2c(Cl)cc(Cl)cc2Cl)c(C#N)c1Cl
Output: 167

---

// values below are reported Proliferation inhibitory effect of the compounds on A549 cells (% of Control)
- Test system: non-small cell lung cancer A549 cells
- experiment notes: In vitro cell inhibition assay, CCK-8 method, A549
- Format: cell-based, human
- assay setup: CCK-8, 100 μM, 48 h incubation

Solved cases below.
{"columns": ["molecule", "data value"],
 "data": [
  ["COC(=O)c1cc(Cl)c(Nc2c(Cl)c(Cl)c(C#N)c(Cl)c2C#N)c(Cl)c1 [Compound 6-100]", "89.94 % of Control"],
  ["N#Cc1c(Cl)c(Cl)c(Nc2c(Cl)cc(Br)cc2Cl)c(C#N)c1Cl [Compound 6-201]", "83.86 % of Control"],
  ["N#Cc1c(Cl)c(Cl)c(Nc2c(Cl)cc(C(F)(F)F)cc2Cl)c(C#N)c1Cl [Compound 6-95]", "98.69 % of Control"],
  ["N#Cc1c(Cl)c(Cl)c(Nc2ccc(C(F)(F)F)cc2)c(C#N)c1Cl [Compound 6-24]", "87.36 % of Control"],
  ["N#Cc1c(Cl)c(Cl)c(Nc2c(Br)cc(OC(F)(F)F)cc2Br)c(C#N)c1Cl [Compound 6-111]", "99.83 % of Control"]
]}

Task: Request the reported Proliferation inhibitory effect of the compounds on A549 cells (% of Control) associated with COC(=O)c1ccc(Nc2c(Cl)c(Cl)c(C#N)c(Cl)c2C#N)cc1 [Compound 6-25]
Output: 81.32 % of Control

Task: Another molecule to check: N#Cc1c(Cl)c(Cl)c(Nc2c(Cl)cc(Cl)cc2Cl)c(C#N)c1Cl [Compound 6-93]
Output: 98.18 % of Control

Task: Another molecule to check: N#Cc1c(Cl)c(Cl)c(Nc2ccc(C(F)(F)F)cc2Cl)c(C#N)c1Cl [Compound 6-47]
Output: 99.91 % of Control

---

- Test system: leukemia HL-60 cells
- experiment notes: In vitro cell inhibition assay, CCK-8 method, HL-60
- Format: cell-based, human
- assay setup: HL-60 cells, CCK-8 method, concentration 1 μM
experimental readout: Proliferation inhibitory effect of the compounds on HL-60 cells (% of Control)

{"columns": ["line notation", "data value"],
 "data": [
  ["COC(=O)c1ccc(Nc2c(Cl)c(Cl)c(C#N)c(Cl)c2C#N)cc1", "84.06 % of Control"]
]}

Turning now to a further compound:
Task: Request the reported Proliferation inhibitory effect of the compounds on HL-60 cells (% of Control) associated with N#Cc1c(Cl)c(Cl)c(Nc2c(Br)cc(OC(F)(F)F)cc2Br)c(C#N)c1Cl
Output: 79.31 % of Control

---

- System: bladder cancer T24
- experiment notes: In vitro cell inhibition assay, CCK-8 method, T24
- Type: cell-based, human
- assay setup: bladder cancer T24, CCK-8 method; read-out: The half maximal inhibitory concentration (IC50)
experimental readout: IC50 (nM)
I only need the number, in nM, no unit after it.

Task: Request the reported IC50 associated with N#Cc1c(Cl)c(Cl)c(Nc2c(Cl)cc(Cl)cc2Cl)c(C#N)c1Cl
Output: 603

---

- Test system: cervical cancer Hela
- experiment notes: In vitro cell inhibition assay, CCK-8 method, Hela
- Format: cell-based, human
- assay setup: read-out: The half maximal inhibitory concentration (IC50)
experimental readout: pIC50
Conceptually, pIC50 converts a concentration in mol/L into minus its log10.

Task: Request the reported pIC50 associated with N#Cc1c(Cl)c(Cl)c(Nc2c(Cl)cc(Cl)cc2Cl)c(C#N)c1Cl [Compound 6-93]
Output: 5.82

---

// values below are reported Proliferation inhibitory effect of the compounds on A549 cells (% of Control)
- Test system: non-small cell lung cancer A549 cells
- experiment notes: In vitro cell inhibition assay, CCK-8 method, A549
- Assay type: cell-based, human
- assay setup: CCK-8, 10 μM, 48 h incubation

Task: Request the reported Proliferation inhibitory effect of the compounds on A549 cells (% of Control) associated with N#Cc1c(Cl)c(Cl)c(Nc2c(Cl)cc(C(F)(F)F)cc2Cl)c(C#N)c1Cl [Compound 6-95]
Output: 97.88 % of Control

Task: Another molecule to check: N#Cc1c(Cl)c(Cl)c(Nc2c(Cl)cc(Cl)cc2Cl)c(C#N)c1Cl [Compound 6-93]
Output: 87.64 % of Control

Task: Another molecule to check: N#Cc1c(Cl)c(Cl)c(Nc2ccc(C(F)(F)F)cc2Cl)c(C#N)c1Cl [Compound 6-47]
Output: 55.57 % of Control

Task: Another molecule to check: N#Cc1c(Cl)c(Cl)c(Nc2c(Br)cc(OC(F)(F)F)cc2Br)c(C#N)c1Cl [Compound 6-111]
Output: 80.03 % of Control

Task: Another molecule to check: N#Cc1c(Cl)c(Cl)c(Nc2c(Cl)cc(Br)cc2Cl)c(C#N)c1Cl [Compound 6-201]
Output: 60.23 % of Control

Task: Another molecule to check: COC(=O)c1ccc(Nc2c(Cl)c(Cl)c(C#N)c(Cl)c2C#N)cc1 [Compound 6-25]
Output: 55.87 % of Control

Task: Another molecule to check: N#Cc1c(Cl)c(Cl)c(Nc2ccc(C(F)(F)F)cc2)c(C#N)c1Cl [Compound 6-24]
Output: 60.31 % of Control

Task: Another molecule to check: COC(=O)c1cc(Cl)c(Nc2c(Cl)c(Cl)c(C#N)c(Cl)c2C#N)c(Cl)c1 [Compound 6-100]
Output: 57.45 % of Control

Value source: patent US9376376B2
